Values were extracted from paper PMC9930818.

- measured-target: hCA II (Homo sapiens)
- Construct: gene CA2; recombinant, obtained in-house as reported earlier; cytosolic isoform
- method-description: stopped-flow CO2 hydration assay
- Type: biochemical
measure: Ki (nM)

Record excerpt, results attached:
{"compound": "NS(=O)(=O)c1ccc2nc(NC3=NC4CCCCC4N3)sc2c1 (stereo not drawn)", "Ki, nM": 65.6}
{"compound": "NS(=O)(=O)c1ccc2nc(Nc3nc4ccccc4[nH]3)sc2c1", "Ki, nM": 84}
{"compound": "CC1CN=C(Nc2nc3ccc(S(N)(=O)=O)cc3s2)N1 (stereo not drawn)", "Ki, nM": 48.1}
{"compound": "NS(=O)(=O)c1ccc2nc(NC3=NCCN3)sc2c1", "Ki, nM": 37.6}

A. NS(=O)(=O)c1ccc2nc(Nc3nc4ccc(Cl)cc4[nH]3)sc2c1
B. NS(=O)(=O)c1ccc2nc(Nc3nc4ccc(C(F)(F)F)cc4[nH]3)sc2c1
Out of A and B , name the one with the higher Ki. Identify your selection by its label.
A

* * *

- measured-target: hCA I (Homo sapiens, UniProt P00915)
- Construct: gene CA1; recombinant, obtained in-house as reported earlier; cytosolic isoform
- Sequence (P00915 2-261): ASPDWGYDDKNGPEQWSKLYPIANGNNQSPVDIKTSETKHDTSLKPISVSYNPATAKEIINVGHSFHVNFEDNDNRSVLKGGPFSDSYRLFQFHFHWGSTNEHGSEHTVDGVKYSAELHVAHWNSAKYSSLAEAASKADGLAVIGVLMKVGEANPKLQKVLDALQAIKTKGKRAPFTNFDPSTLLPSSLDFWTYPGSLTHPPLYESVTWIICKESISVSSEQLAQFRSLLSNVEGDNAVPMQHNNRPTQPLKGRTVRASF
- method-description: stopped-flow CO2 hydration assay
- Format: biochemical
- From the text: stopped-flow CO2 hydration assay on hCA I
measure: Ki (nM)

{"molecule": "NS(=O)(=O)c1ccc2nc(Nc3nc4ccc(C(F)(F)F)cc4[nH]3)sc2c1 [7b]", "measure": "Ki", "result-unit": "nM", "value-reported": 8100}

A. NS(=O)(=O)c1ccc2nc(NC3=NC4CCCCC4N3)sc2c1 (centres unmarked) [6c]
B. NS(=O)(=O)c1ccc2nc(Nc3nc4ccccc4[nH]3)sc2c1 [7a]
C. NS(=O)(=O)c1ccc2nc(NC3=NCCN3)sc2c1 [6a]
Put the items in order so that reported Ki rises from first to last. Response field: labels, in requested order.
C, B, A

* * *

- measured-target: hCA VII (Homo sapiens, UniProt P43166)
- Construct: gene CA7; recombinant, obtained in-house as reported earlier; cytosolic isoform
- Sequence (P43166 whole entry, canonical isoform): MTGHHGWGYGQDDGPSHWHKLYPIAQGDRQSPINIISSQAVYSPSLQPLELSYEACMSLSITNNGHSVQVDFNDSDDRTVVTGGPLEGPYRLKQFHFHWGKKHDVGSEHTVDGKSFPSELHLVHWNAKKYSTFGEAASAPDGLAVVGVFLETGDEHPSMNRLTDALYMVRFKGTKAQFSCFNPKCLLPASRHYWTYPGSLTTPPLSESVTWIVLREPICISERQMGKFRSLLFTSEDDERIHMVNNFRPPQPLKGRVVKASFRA
- method-description: stopped-flow CO2 hydration assay
- Type: biochemical
measure: Ki (nM)

{"compound": "NS(=O)(=O)c1ccc2nc(Nc3nc4ccccc4[nH]3)sc2c1", "result-unit": "nM", "Ki": 66.9}

a. NS(=O)(=O)c1ccc2nc(Nc3nc4ccc(Cl)cc4[nH]3)sc2c1
b. NS(=O)(=O)c1ccc2nc(NC3=NCCN3)sc2c1
c. NS(=O)(=O)c1ccc2nc(NC3=NC4CCCCC4N3)sc2c1 (stereo not drawn)
d. NS(=O)(=O)c1ccc2nc(Nc3nc4ccc(C(F)(F)F)cc4[nH]3)sc2c1
Put the items in order so that reported Ki rises from first to last. Response field: labels, in requested order.
b, c, d, a

* * *

- measured-target: hCA I (Homo sapiens, UniProt P00915)
- Construct: gene CA1; recombinant, obtained in-house as reported earlier; cytosolic isoform
- method-description: stopped-flow CO2 hydration assay
- Type: biochemical
measure: Ki (nM)

I. NS(=O)(=O)c1ccc2nc(Nc3nc4ccc(Cl)cc4[nH]3)sc2c1 [7c]
II. CC1CN=C(Nc2nc3ccc(S(N)(=O)=O)cc3s2)N1 (centres unmarked) [6b]
I'm curious whether I or II has the smaller Ki number. Which is it? Identify your selection by its label.
II
